assay: Inhibition of gamma-secretase-mediated amyloid beta 40/42 accumulation assessed as beta-CTF cleavage by cell-based sandwich ELISA
# label = Y if EC50 < 800 nM else N

| Compound | Assigned label |
| --- | --- |
| CCC(CC)[C@@H](CO)NS(=O)(=O)c1ccc(Cl)s1 [GSI-136] | Y |
| CC[C@H](CC(C)C)[C@@H](CO)NS(=O)(=O)c1ccc(Cl)s1 | Y |
| O=S(=O)(N[C@H](CO)C1CCNCC1)c1ccc(Cl)s1 | N |
| O=S(=O)(N[C@H](CO)C1CCCC1)c1ccc(Cl)s1 | Y |
| CCC[C@H](CC(C)C)[C@@H](CO)NS(=O)(=O)c1ccc(Cl)s1 | Y |
| CCCCCC[C@@H](CC)[C@@H](CO)NS(=O)(=O)c1ccc(Cl)s1 | Y |
| CC(C)(C)[C@@H](CO)NS(=O)(=O)c1ccc(Cl)s1 | N |
| CC[C@H](C)[C@@H](CO)NS(=O)(=O)c1ccc(F)s1 | Y |
| O=S(=O)(N[C@H](CO)C(c1ccccc1)c1ccccc1)c1ccc(Cl)s1 | N |
| CC[C@H](C)[C@@H](CO)NS(=O)(=O)c1ccc(Cl)cc1 | N |
| CCCCC(CCCC)[C@@H](CO)NS(=O)(=O)c1ccc(Cl)s1 | N |
| CCCCC[C@H](CC)[C@@H](CO)NS(=O)(=O)c1ccc(Cl)s1 | Y |
| CC(C)[C@@](C)(CO)NS(=O)(=O)c1ccc(Cl)s1 | Y |
| C[C@@H](c1ccccc1)[C@@H](CO)NS(=O)(=O)c1ccc(Cl)s1 | N |
| CCCCCC[C@@H](CCC)[C@@H](CO)NS(=O)(=O)c1ccc(Cl)s1 | N |
| CCCCC[C@H](c1ccccc1)[C@@H](CO)NS(=O)(=O)c1ccc(Cl)s1 | N |
| CCC[C@H](CC)[C@@H](CO)NS(=O)(=O)c1ccc(Cl)s1 | Y |
| CC[C@@H](C)[C@H](CO)NS(=O)(=O)c1ccc(Cl)s1 | N |
| CCCCCC[C@@H](CCCCC)[C@@H](CO)NS(=O)(=O)c1ccc(Cl)s1 | N |
| CC[C@H](C)[C@@H](CO)NS(=O)(=O)c1ccccc1 | N |
| CCC[C@H](c1ccccc1)[C@@H](CO)NS(=O)(=O)c1ccc(Cl)s1 | N |
| CCCCC[C@H](CC(C)C)[C@@H](CO)NS(=O)(=O)c1ccc(Cl)s1 | N |
| CCCCC[C@H](C)[C@@H](CO)NS(=O)(=O)c1ccc(Cl)s1 | Y |
| CC[C@H](C)[C@@H](CO)NS(=O)(=O)c1ccc(Br)s1 | Y |
| CC(C)C[C@@H](C)[C@@H](CO)NS(=O)(=O)c1ccc(Cl)s1 | Y |
| CC[C@H](C)[C@@H](CO)NS(=O)(=O)c1cccs1 | N |
| CCCCCC[C@H](CC)[C@@H](CO)NS(=O)(=O)c1ccc(Cl)s1 | Y |
| CCCCCC[C@@H](C)[C@@H](CO)NS(=O)(=O)c1ccc(Cl)s1 | Y |
| CCC[C@H](C)[C@@H](CO)NS(=O)(=O)c1ccc(Cl)s1 | Y |
| CC[C@H](C)[C@@H](CO)NS(=O)(=O)c1ccc(Cl)o1 | N |
| CC[C@H](C)[C@@H](CO)NS(=O)(=O)c1cc(Cl)c(Cl)s1 | N |
| CC[C@H](C)[C@@H](CO)NS(=O)(=O)c1ccc(Cl)s1 | Y |
| CC(C)C[C@@H](CO)NS(=O)(=O)c1ccc(Cl)s1 | N |
| CC[C@@H](C)[C@@H](CO)NS(=O)(=O)c1ccc(Cl)s1 | Y |
| CCCCCC[C@@H](C(C)C)[C@@H](CO)NS(=O)(=O)c1ccc(Cl)s1 | Y |
| CC[C@H](C)[C@@H](CO)NS(=O)(=O)c1sc(Cl)cc1Br | N |
| CCCC(CCC)[C@@H](CO)NS(=O)(=O)c1ccc(Cl)s1 | Y |
| CC[C@H](C)[C@@H](CO)NS(=O)(=O)c1ccc(Br)cc1 | N |
